This collection of values is drawn from patent US9828379B2.

Parameter inhibition at 1 µM: see the listing below.
Target: MAGL (Mus musculus, UniProt O35678)
Sequence (O35678 whole entry): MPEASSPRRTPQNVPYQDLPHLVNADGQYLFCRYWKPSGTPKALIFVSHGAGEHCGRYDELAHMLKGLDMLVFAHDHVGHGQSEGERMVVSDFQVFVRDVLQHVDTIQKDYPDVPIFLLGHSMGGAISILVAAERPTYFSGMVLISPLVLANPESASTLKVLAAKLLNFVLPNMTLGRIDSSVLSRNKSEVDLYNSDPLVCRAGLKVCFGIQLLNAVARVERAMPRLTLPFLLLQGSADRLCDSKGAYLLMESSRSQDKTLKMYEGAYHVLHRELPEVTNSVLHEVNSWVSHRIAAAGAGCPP
Test: In vitro competitive activity-based protein profiling (Table 2, % inhibition at 1 μM)
Type: biochemical
Conditions: read-out: % Inhibition at 1 μM MAGL
recorded_metric: inhibition at 1 µM

INSERT INTO assay_data (molecule, recorded_metric, endpoint_value) VALUES
  ('Cc1c(CN2CC3CN(C(=O)OC(C(F)(F)F)C(F)(F)F)CC3C2)cccc1N1CCN(S(C)(=O)=O)CC1 (stereo not drawn) [Example 150]', 'inhibition at 1 µM', '> 75%'),
  ('Cc1cccc(CN2CC3CN(C(=O)OC(C(F)(F)F)C(F)(F)F)CC3C2)c1N1CCOCC1 (stereo not drawn) [Example 41]', 'inhibition at 1 µM', '> 75%'),
  ('CC(=O)N1CCC(c2nn(C)cc2CN2CC3CN(C(=O)ON4C(=O)CCC4=O)CC3C2)CC1 (stereo not drawn) [Example 116]', 'inhibition at 1 µM', '< 25%'),
  ('CC(C)n1cc(CN2CC3CN(C(=O)ON4C(=O)CCC4=O)CC3C2)c(-c2ccccc2Cl)n1 (stereo not drawn) [Example 118]', 'inhibition at 1 µM', '25 to 75%'),
  ('Cn1nc(-c2ccccc2)cc1CN1CC2CN(C(=O)OC(C(F)(F)F)C(F)(F)F)CC2C1 (stereo not drawn) [Example 194]', 'inhibition at 1 µM', '> 75%'),
  ('Cc1c(CN2CC3CN(C(=O)OC(C(F)(F)F)C(F)(F)F)CC3C2)cccc1N1CCC(F)(F)CC1 (stereo not drawn) [Example 153]', 'inhibition at 1 µM', '> 75%'),
  ('CC(=O)N1CCC(c2nn(C)cc2CN2CC3CN(C(=O)OC(C(F)(F)F)C(F)(F)F)CC3C2)CC1 (stereo not drawn) [Example 52]', 'inhibition at 1 µM', '25 to 75%'),
  ('O=C(ON1C(=O)CCC1=O)N1CC2CN(Cc3ccc(C(=O)N4CCOCC4)cc3Cl)CC2C1 (stereo not drawn) [Example 163]', 'inhibition at 1 µM', '< 25%'),
  ('CC(=O)N1CCN(c2ccc(CN3CC4CN(C(=O)OC(C(F)(F)F)C(F)(F)F)CC4C3)c(Cl)c2)CC1 (stereo not drawn) [Example 28]', 'inhibition at 1 µM', '> 75%'),
  ('O=C(ON1C(=O)CCC1=O)N1CC2CN(Cc3ccc(C(=O)N4CCC4)cc3Cl)CC2C1 (stereo not drawn) [Example 165]', 'inhibition at 1 µM', '25 to 75%'),
  ('CC(=O)NC1CCN(c2cccc(CN3CC4CN(C(=O)ON5C(=O)CCC5=O)CC4C3)c2C)CC1 (stereo not drawn) [Example 142]', 'inhibition at 1 µM', '< 25%'),
  ('CC(=O)N1CCN(c2ccc(CN3CC4CN(C(=O)ON5C(=O)CCC5=O)CC4C3)c(Cl)c2)CC1 (stereo not drawn) [Example 103]', 'inhibition at 1 µM', '< 25%'),
  ('Cc1cccc(CN2CC3CN(C(=O)OC(C(F)(F)F)C(F)(F)F)CC3C2)c1N1CCC2(CCOC2)C1 (stereo not drawn) [Example 40]', 'inhibition at 1 µM', '> 75%'),
  ('O=C(OC(C(F)(F)F)C(F)(F)F)N1CC2CN(Cc3ccc(C(F)F)cc3N3CCCCC3)CC2C1 (stereo not drawn) [Example 204]', 'inhibition at 1 µM', '> 75%'),
  ('CN1CCN(c2c(Cl)cccc2CN2CC3CN(C(=O)OC(C(F)(F)F)C(F)(F)F)CC3C2)CC1 (stereo not drawn) [Example 171]', 'inhibition at 1 µM', '> 75%'),
  ('CC(=O)N1CCN(c2cc(C(C)C)ccc2CN2CC3CN(C(=O)OC(C(F)(F)F)C(F)(F)F)CC3C2)CC1 (stereo not drawn) [Example 24]', 'inhibition at 1 µM', '> 75%'),
  ('CCn1cc(CN2CC3CN(C(=O)OC(C(F)(F)F)C(F)(F)F)CC3C2)c(-c2ccncc2)n1 (stereo not drawn) [Example 72]', 'inhibition at 1 µM', '> 75%'),
  ('CC1COCCN1c1ccc(CN2CC3CN(C(=O)ON4C(=O)CCC4=O)CC3C2)c(Cl)c1 (stereo not drawn) [Example 102]', 'inhibition at 1 µM', '25 to 75%');
